TESTED SYSTEM: Cone cGMP-specific 3',5'-cyclic phosphodiesterase subunit alpha' (Homo sapiens)
Sequence (P51160 whole entry): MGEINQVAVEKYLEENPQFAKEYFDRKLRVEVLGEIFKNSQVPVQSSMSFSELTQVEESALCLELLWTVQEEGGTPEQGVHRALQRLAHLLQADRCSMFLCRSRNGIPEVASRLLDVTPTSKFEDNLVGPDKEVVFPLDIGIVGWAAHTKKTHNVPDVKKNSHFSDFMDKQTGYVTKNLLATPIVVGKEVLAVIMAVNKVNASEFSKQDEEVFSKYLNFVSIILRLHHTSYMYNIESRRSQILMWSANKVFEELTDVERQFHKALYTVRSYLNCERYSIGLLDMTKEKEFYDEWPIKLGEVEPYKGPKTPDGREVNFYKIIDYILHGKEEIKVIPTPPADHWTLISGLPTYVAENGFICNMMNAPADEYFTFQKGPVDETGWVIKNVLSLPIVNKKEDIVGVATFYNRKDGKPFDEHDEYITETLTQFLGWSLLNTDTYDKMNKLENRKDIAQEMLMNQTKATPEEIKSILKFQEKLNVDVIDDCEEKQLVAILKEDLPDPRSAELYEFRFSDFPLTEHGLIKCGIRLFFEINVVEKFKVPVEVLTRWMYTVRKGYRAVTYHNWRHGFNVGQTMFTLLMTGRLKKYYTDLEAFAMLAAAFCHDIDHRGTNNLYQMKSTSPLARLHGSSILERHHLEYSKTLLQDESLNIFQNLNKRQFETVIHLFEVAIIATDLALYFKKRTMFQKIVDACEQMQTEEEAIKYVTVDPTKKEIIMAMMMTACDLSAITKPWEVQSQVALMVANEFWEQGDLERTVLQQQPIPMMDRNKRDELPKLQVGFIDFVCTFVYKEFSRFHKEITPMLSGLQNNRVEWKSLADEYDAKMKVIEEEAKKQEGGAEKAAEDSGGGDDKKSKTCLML
PROCEDURE DETAILS: Inhibition of human recombinant PDE6C using FAM-labelled cGMP as substrate after 60 mins by fluorescence polarization assay
ENDPOINT: pIC50
The value called pIC50 is obtained by taking minus log10 of the concentration in mol/L.

What pIC50 value was documented for this compound, `CCN1Cc2nc3ccc(C#N)cc3c(NCc3ccc(OC)c(Cl)c3)c2C1=O` ?
8.18

###

PROCEDURE DETAILS: Drug level in mouse brain at 25 mg/kg, ip measured at 0.25 hrs post dose by LC/MS analysis
Assay type: ADME, organism-based
TEST PARAMETERS: read-out: Drug uptake
ENDPOINT: concentration at 0.25 h (ng/g)
Respond numerically; units are ng/g and should not be typed.

For the molecule `COc1ccc(CNc2c3c(nc4ccc(C#N)cc24)CCN(C(C)=O)C3)cc1Cl` , what concentration at 0.25 h is on record?
492
